Target: NRAS Q61R (Homo sapiens (Human), UniProt P01111+P62937, Q61R)
Sequence (P01111 whole entry Q61R): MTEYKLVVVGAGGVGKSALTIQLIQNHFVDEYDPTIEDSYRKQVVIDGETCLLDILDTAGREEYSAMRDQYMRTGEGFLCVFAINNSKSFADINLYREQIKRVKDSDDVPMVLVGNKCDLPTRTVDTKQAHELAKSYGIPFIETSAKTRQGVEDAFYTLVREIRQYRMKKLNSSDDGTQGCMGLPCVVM
Sequence (P62937 whole entry): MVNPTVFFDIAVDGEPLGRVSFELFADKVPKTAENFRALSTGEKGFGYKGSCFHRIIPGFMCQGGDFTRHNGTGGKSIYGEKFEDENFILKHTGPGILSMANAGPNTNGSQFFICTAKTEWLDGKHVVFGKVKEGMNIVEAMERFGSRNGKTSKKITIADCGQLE
Experiment: Ras-Raf (BRAF RBD) disruption / FRET / MOA assay, NRAS Q61R
Format: biochemical
Settings: NRAS Q61R; Ras-Raf disruption/FRET/MOA assay; read-out: IC50* NRAS Q61R FRET data
// reported IC50 for each item listed

Noted for C=CC(=O)NC[C@H]1CCN1C(=O)N(C)[C@H](C(=O)N[C@H]1Cc2nc(cs2)-c2ccc3c(c2)c(c(-c2cccnc2[C@H](C)OC)n3CC)CC(C)(C)COC(=O)[C@@H]2CCCN(N2)C1=O)C(C)C (atropisomer, axis not shown) : its IC50 reads 100 to 1000 nM

Noted for CO[C@@H](C)c1ncccc1-c1c2c3cc(ccc3n1CC(F)(F)F)-c1csc(n1)C[C@H](NC(=O)CCOC1CN(C(=O)C#CC(C)(C)N3CCC3)C1)C(=O)N1CCC[C@H](N1)C(=O)OCC(C)(C)C2 (atropisomer, axis not shown) : its IC50 reads 1000 to 10000 nM

Noted for C=CC(=O)N1C[C@H](C)N(C(=O)N(C)[C@H](C(=O)N[C@H]2Cc3nc(cs3)-c3ccc4c(c3)c(c(-c3cccnc3[C@H](C)OC)n4CC)CC(C)(C)COC(=O)[C@@H]3CCCN(N3)C2=O)C(C)C)CC12CC2 (atropisomer, axis not shown) : its IC50 reads 100 to 1000 nM

Noted for C=CC(=O)N1CC[C@H](C(=O)N(C)[C@H](C(=O)N[C@H]2Cc3cc(O)cc(c3)-c3ccc4c(c3)c(c(-c3cncs3)n4CC)CC(C)(C)COC(=O)[C@@H]3CCCN(N3)C2=O)C(C)C)C1 : its IC50 reads > 10000 nM

###

Target: KRAS Q61H (Homo sapiens (Human), UniProt P01116+P62937, Q61H)
Sequence (P01116-2 other isoform, or with tags, fused parts or gaps Q61H): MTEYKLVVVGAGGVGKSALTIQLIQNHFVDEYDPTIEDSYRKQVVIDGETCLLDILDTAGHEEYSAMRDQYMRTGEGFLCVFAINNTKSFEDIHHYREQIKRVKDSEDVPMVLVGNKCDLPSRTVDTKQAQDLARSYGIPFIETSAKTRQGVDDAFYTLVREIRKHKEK
Sequence (P62937 whole entry): as the sequence (P62937 whole entry) above
Experiment: Ras-Raf (BRAF RBD) disruption / FRET / MOA assay, KRAS Q61H
Format: biochemical
Details: Ras-Raf disruption/FRET/MOA assay; class symbols; read-out: KRAS Q61H FRET data IC50
// reported IC50 for each item listed

[
  {
    "COMPOUND": "C=CC(=O)Nc1ccc(C(=O)N(C)[C@H](C(=O)N[C@H]2Cc3cc(O)cc(c3)-c3ccc4c(c3)c(c(-c3cccnc3[C@H](C)OC)n4CC)CC(C)(C)COC(=O)[C@@H]3CCCN(N3)C2=O)C(C)C)nc1 (atropisomer, axis not shown)",
    "SYSTEM": "KRAS Q61H (Homo sapiens (Human), UniProt P01116+P62937, Q61H)",
    "IC50": "100 to 1000 nM"
  }
]

Noted for CCn1c(-c2cccnc2[C@H](C)OC)c2c3cc(ccc31)-c1csc(n1)C[C@H](NC(=O)[C@H](C(C)C)N(C)C(=O)N1CCN(C(=O)/C=C/CN3CCOCC3)C3(CC3)C1)C(=O)N1CCC[C@H](N1)C(=O)OCC(C)(C)C2 (atropisomer, axis not shown) : its IC50 reads 10 to 100 nM

Noted for C=CC(=O)N1CC2(CCN2C(=O)N(C)[C@H](C(=O)N[C@H]2Cc3cccc(n3)-c3ccc4c(c3)c(c(-c3cccnc3[C@H](C)OC)n4CC)CC(C)(C)COC(=O)[C@@H]3CCCN(N3)C2=O)C(C)C)C1 (atropisomer, axis not shown) : its IC50 reads 100 to 1000 nM

Noted for C=CC(=O)N1CCOC2(CCN(C(=O)N(C)[C@H](C(=O)N[C@H]3Cc4nc(cs4)-c4ccc5c(c4)c(c(-c4cccnc4[C@H](C)OC)n5CC)CC(C)(C)COC(=O)[C@@H]4CCCN(N4)C3=O)C(C)C)CC2)C1 (atropisomer, axis not shown) : its IC50 reads 100 to 1000 nM

Data credit: patent US11566007B2
